Entries and their measured pIC50 follow.
System: Pfeiffer cell line (diffuse large B cell lymphoma)
procedure_details: Pfeiffer cell proliferation assay
Type: cell-based
test_conditions: Homo sapiens, Pfeiffer, first of two isolated isomers
pIC50: −log10 of the molar value.

molecule	test_readout	value_observed
CC(Nc1ncnc2[nH]cnc12)c1cc(Cl)c2cccnc2c1N1CCC[C@H](O)C1 (some centres unmarked)	pIC50	< 6.00
COC1CCCN(c2c(C(C)Nc3ncnc4[nH]cnc34)cc(Cl)c3cccnc23)C1 (centres unmarked) [Example 67, tris(trifluoroacetate)]	pIC50	6.60 to 7.00

Q: Need pIC50, item CC(Nc1ncnc2[nH]cnc12)c1cc(Cl)c2cccnc2c1N1CCCC(CO)C1 (centres unmarked) [Example 63, tris(trifluoroacetate)]
Result: < 6.00

Q: Repeat for the following molecule: COC1CCN(c2c(C(C)Nc3ncnc4[nH]cnc34)cc(Cl)c3cccnc23)C1 (centres unmarked) [Example 68, tris(trifluoroacetate)]
Result: 6.60 to 7.00

Q: Repeat for the following molecule: COC(=O)N[C@H]1CCN(c2c(C(C)Nc3ncnc4[nH]cnc34)cc(Cl)c3cccnc23)C1 (some centres unmarked) [Example 79, tris(trifluoroacetate)]
Result: 6.30 to 6.60
